System: SF-295 CNS
method: NCI tumour cell line growth inhibition, 48 h
Can you tell me GI50 for the items I'm about to list?

Per the records, this compound ( COc1ccc(/C=C/c2cc(OC)c(OC)c(OC)c2)cc1NC(=O)/C=C/c1ccc(F)cc1 ) has GI50 equal to 1570 nM

Per the records, this compound ( COc1cccc(-c2nc3sccn3c2-c2ccnc(NCCNC(=O)Nc3cccc(C(F)(F)F)c3)n2)c1 ) has GI50 equal to 2800 nM

Per the records, this compound ( CC1(C)C=CC[C@]2(C)[C@H]3CC[C@@H]4[C@H]5[C@H](C(=O)/C=C/c6cccnc6)CC[C@]5(CO)CC[C@@]4(C)[C@]3(C)CC[C@@H]12 ) has GI50 equal to 1150 nM

Per the records, this compound ( Oc1ccc(Br)cc1Sc1cc(Br)ccc1O ) has GI50 equal to 14400 nM
